Taken from patent US6395499B1.

- Assay Target: human prostaglandin D2 (DP) receptor (Homo sapiens, UniProt Q13258)
- Construct: The full length coding cDNA was constructed as follows
- Sequence (Q13258 whole entry): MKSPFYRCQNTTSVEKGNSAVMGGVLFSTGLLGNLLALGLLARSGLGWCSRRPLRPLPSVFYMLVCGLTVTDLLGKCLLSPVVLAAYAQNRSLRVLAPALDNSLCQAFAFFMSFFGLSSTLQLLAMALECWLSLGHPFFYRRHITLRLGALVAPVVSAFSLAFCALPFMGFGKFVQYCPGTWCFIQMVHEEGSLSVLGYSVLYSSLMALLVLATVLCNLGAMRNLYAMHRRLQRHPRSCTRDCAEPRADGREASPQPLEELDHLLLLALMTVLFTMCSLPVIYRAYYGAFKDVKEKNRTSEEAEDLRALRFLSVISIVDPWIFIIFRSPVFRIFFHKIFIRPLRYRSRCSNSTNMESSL
- Measurement Protocol: [3H]PGD2 specific binding assay, membranes of pcDNA3-hDP transfected COS-M6 cells
- Settings: 0.87 nM [3H]PGD2, 60 min at 30° C., pH 7.0, read-out: Ki, competition for [3H]PGD2 specific binding
pKi: −log10 of the molar value.
pKi values for the compounds below.
Measure: pKi

compound="O=C(O)CCCCCCC1C(=O)NC(=O)N1CCC(O)C1CCCCC1 (stereo not shown) [BW245C]" measure=pKi reported_result=9.05
compound="O=C(O)CCCCCCC1C(=O)N(Cc2ccccc2)C(=O)N1NCC(O)C1CCCCC1 (stereo not shown) [BW868C]" measure=pKi reported_result=8.77
compound="CC#CCC(C)[C@H](O)/C=C/[C@@H]1[C@H]2C/C(=C/CCCC(=O)O)C[C@H]2C[C@H]1O (stereo partly shown)" measure=pKi reported_result=6.20
compound=CCCCC[C@H](O)/C=C/[C@@H]1[C@@H](C/C=C\CCCC(=O)O)[C@@H](O)C[C@H]1O measure=pKi reported_result=6.29
compound=CCCCC[C@H](O)/C=C/[C@H]1[C@H](O)CC(=O)[C@@H]1C/C=C\CCCC(=O)O measure=pKi reported_result=7.00
compound="CCCCC[C@H](O)/C=C/[C@H]1C(=O)C[C@H](O)[C@@H]1C/C=C\\CCCC(=O)O [PGD2, Prostaglandin D2]" measure=pKi reported_result=8.96
